# studyTarget: CIB1 and αIIb interaction (CIB1-GST : F-αIIb peptide) (Homo sapiens)
# Construct: made in house; host or cells: BL-21 plus RIL cells (E. coli)
# Sequence (Q99828 1-191): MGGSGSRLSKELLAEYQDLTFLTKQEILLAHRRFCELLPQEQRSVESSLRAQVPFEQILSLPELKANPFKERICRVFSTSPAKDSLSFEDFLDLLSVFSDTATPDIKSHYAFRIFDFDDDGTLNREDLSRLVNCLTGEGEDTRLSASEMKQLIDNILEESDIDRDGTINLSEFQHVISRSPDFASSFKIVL
# measurementProtocol: FP assay, 1536-well qHTS format (primary and confirmatory screen)
# Type: binding
# measurementContext: confirmatory screen; read-out: IC50 [μM] (confirmatory screen)
readoutName: IC50 (µM)
Enter your answer as a number in µM; do not include the unit.

Req: Fill in: IC50 of CCOC(=O)c1c(-c2ccc(C)o2)csc1NC(=O)CSc1nnnn1-c1ccccc1.O=C(O)C(F)(F)F [NCGC00041785-02] is ___
Resp: 39.8

Req: What measured IC50 goes with Cc1ccc(S(=O)(=O)Nc2cnccc2C(=O)Nc2ccc(-c3nnn[nH]3)cc2)cc1.O=C(O)C(F)(F)F [NCGC00343837-01] ?
Resp: 35.5

Req: # IC50 lookup, item CCCC(=O)c1cc(O)c(O)cc1O [NCGC00091839-03]
Resp: 35.5

Req: Suppose we examine the compound CC1=C(O)C(=O)C=C2C1=CC=C1[C@@]2(C)CC[C@@]2(C)[C@@H]3C[C@](C)(C(=O)O)CC[C@]3(C)CC[C@]12C [NCGC00178913-04] ; what IC50 value has been reported?
Resp: 22.4

Req: Look up IC50 for this compound: CC(C)C(=O)OCc1ccc(-c2nn(Cc3ccccc3)c3ccccc23)o1 [NCGC00479272-01]
Resp: 35.5

Req: Can you look up the measured IC50 of COc1ccccc1C(=O)/C=C1/C(=O)Nc2ccc(C)cc21.O=C(O)C(F)(F)F [NCGC00481357-01] for me?
Resp: 5.6

Req: For CN1CCN(c2ccc(Nc3nn4c(=O)c5ccccc5nc4s3)cc2)CC1.O=C(O)C(F)(F)F [NCGC00186454-01] , what is its reported IC50?
Resp: 50.1

* * *

# studyTarget: CIB1 and αIIb interaction (CIB1-GST : F-αIIb peptide) (Homo sapiens)
# Construct: made in house; host or cells: BL-21 plus RIL cells (E. coli)
# Sequence (Q99828 1-191): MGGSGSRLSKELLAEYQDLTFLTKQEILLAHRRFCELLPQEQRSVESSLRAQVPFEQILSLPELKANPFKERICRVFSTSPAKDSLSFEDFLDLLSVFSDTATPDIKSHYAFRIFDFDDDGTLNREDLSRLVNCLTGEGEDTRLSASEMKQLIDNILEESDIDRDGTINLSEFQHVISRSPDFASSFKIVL
# measurementProtocol: FP assay, 1536-well qHTS format (primary and confirmatory screen)
# Type: binding
# measurementContext: qHTS primary screen hits, Table S2; negative sign = inhibitory curve
readoutName: Curve Class

Req: Consider the compound Oc1ccccc1C1Nc2cccc3cccc(c23)N1 [NCGC00026112-04] and give its measured Curve Class.
Resp: -2.2

Req: Can you look up the measured Curve Class of CNc1oc(-c2c[nH]c3ccccc23)nc1C#N.O=C(O)C(F)(F)F [NCGC00262511-01] for me?
Resp: -1.4

Req: Quick one: Curve Class of Cc1cc(N2CCN(c3ccccc3)CC2)nc(-n2nc(C)cc2C)n1.O=C(O)C(F)(F)F [NCGC00067399-02] ?
Resp: -2.4

Req: # query: Curve Class of entry C[n+]1cc2c3c(ccc2c2ccc4cc5c(cc4c21)OCO5)OCO3.[Cl-] [NCGC00015959-09]
Resp: -1.1
